Target: human TGR5 (Homo sapiens)
Construct: expressed in transfected cells; host or cells: HEK293
Sequence (Q8TDU6 1-330): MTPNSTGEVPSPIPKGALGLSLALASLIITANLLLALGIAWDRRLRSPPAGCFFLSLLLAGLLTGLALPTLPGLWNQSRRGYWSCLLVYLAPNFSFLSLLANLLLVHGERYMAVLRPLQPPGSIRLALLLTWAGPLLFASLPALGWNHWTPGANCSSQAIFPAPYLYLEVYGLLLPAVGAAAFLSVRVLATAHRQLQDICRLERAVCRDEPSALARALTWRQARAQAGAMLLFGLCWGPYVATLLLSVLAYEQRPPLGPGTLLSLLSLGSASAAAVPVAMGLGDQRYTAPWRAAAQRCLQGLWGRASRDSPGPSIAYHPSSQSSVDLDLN
Assay: Cell-based TGR5 assay (cAMP generation, HTRF)
Settings: HEK293 cells stably transfected with human TGR5; cAMP by HTRF; 30 minutes at 37° C.; read-out: pEC50 Human TGR5 (converted)
We begin with a simple list: items and their reported EC50.

Solved entries:
O=C(O)CCCC(=O)N(CCCCc1cc(Cl)c(CNC2(c3cnccc3-c3ccccc3OC3CC3)CC2)cc1Cl)C[C@H](O)[C@@H](O)[C@H](O)[C@H](O)CO ... 0.126 to 1 µM
CCN(C[C@H](O)[C@@H](O)[C@H](O)[C@H](O)CO)C(=O)CCCC(C)c1ccc(Cl)c(COC2(c3cnccc3-c3ccccc3OC3CC3)CC2)c1 (stereo partly shown) ... < 0.1 µM
O=C(CCCCc1cc(Cl)c(COC2(c3cnccc3-c3ccccc3OC3CC3)CC2)cc1Cl)N[C@@H]1[C@@H](O)[C@H](O)[C@@H](CO)O[C@H]1O ... < 0.1 µM

# next compound below
Asked: Find EC50 (human TGR5 (Homo sapiens)) for the entry `O=C([C@@H](O)[C@@H](O)[C@H](O)[C@@H](O)CO)N(CCCCO)CCCCSc1ccc(Cl)c(COC2(c3cnccc3-c3ccccc3OC3CC3)CC2)c1`
Given back: < 0.1 µM
